src = patent US20240043427A1

biological target: CD73 (Homo sapiens (Human), UniProt P21589); format: biochemical; conditions: 1 mM NaH2PO4 in enzyme buffer, CD73 0.3 nM, AMP 15 uM
Sequence (P21589 27-574): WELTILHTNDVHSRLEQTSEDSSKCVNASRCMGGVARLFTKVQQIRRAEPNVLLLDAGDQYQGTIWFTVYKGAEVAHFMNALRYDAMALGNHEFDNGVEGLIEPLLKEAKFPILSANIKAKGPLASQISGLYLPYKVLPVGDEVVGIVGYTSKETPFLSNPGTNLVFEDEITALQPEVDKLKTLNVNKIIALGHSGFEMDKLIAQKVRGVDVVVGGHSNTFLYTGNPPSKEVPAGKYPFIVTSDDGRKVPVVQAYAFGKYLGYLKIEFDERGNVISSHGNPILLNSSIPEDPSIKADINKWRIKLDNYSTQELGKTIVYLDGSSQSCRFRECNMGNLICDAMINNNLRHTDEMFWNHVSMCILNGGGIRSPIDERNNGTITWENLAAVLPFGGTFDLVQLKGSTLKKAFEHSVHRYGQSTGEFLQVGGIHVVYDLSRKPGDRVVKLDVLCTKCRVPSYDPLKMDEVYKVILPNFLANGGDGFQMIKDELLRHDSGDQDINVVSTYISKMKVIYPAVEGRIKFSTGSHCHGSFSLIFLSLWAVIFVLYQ
A collection of molecules and their measured pIC50
Reminder that pIC50 is minus the log10 of a molar concentration.

The examples below pair each entry with its known result.
O=C(Nc1ccc(F)cc1F)O[C@H]1CN(c2cc(-c3c[nH]c(=O)[nH]c3=O)nn3ccnc23)CC1(F)F [Example 235]: 9.02
O=c1[nH]cc(-c2cc(N3CC(F)(F)C4(CN(CC(F)F)C4)C3)c3nccn3n2)c(=O)[nH]1 [Example 507]: 8.01
N#Cc1ccc([C@H]2C[C@@H]2c2cc(-c3c[nH]c(=O)[nH]c3=O)nn3ccnc23)nc1 (racemic) [Example 155]: 8.69
O=C(OC1CN(c2cc(-c3c[nH]c(=O)[nH]c3=O)nn3ccnc23)CC1(F)F)N1CC(F)(F)C1 (stereo not shown) [Example 536]: 8.42
O=c1[nH]cc(-c2cc(N3C[C@H](Oc4cc(C(F)(F)F)ccn4)C(F)(F)C3)c3nccn3n2)c(=O)[nH]1 [Example 330]: 8.97
CC(C)NC(=O)C(F)(F)C1CCN(c2cc(-c3c[nH]c(=O)[nH]c3=O)nn3ccnc23)C1 (stereo not shown) [Example 662]: 7.72

Please find the next molecule below.
// query Which pIC50 is listed for O=c1[nH]cc(-c2cc([C@H]3C[C@@H]3c3ccc(OCC(F)(F)F)cc3)c3nccn3n2)c(=O)[nH]1 (racemic) [Example 564] ?
// result 8.60
